All figures here come from patent US11427533B2.

experimental_protocol: Solubility in aqueous buffers, shaker at 37° C., filtrate by UHPLC
Type: physicochemical
condition_description: acetate buffer, 37 °C, pH 4.5, aqueous buffer, thermodynamic from solid, buffer pH 4.5 (0.05M acetate buffer PhEur), 2 h at 37° C., 150 mg/8 mL suspension; read-out: Concentration mg/mL (UHPLC)
attribute_measured: solubility thermodynamic at 2 h

COC(=O)[C@]12CCC(C)(C)C[C@H]1[C@H]1C(=O)C=C3[C@]4(C)C=C(C#N)C(=O)C(C)(C)[C@@H]4CC[C@@]3(C)[C@]1(C)CC2 [Form B, reference compound]	0.04 µg/mL
